Origin of measurements: ChEMBL document CHEMBL4825747

TESTED ON: Transient receptor potential cation channel subfamily A member 1 (Rattus norvegicus)
ASSAY PROTOCOL: In vivo antagonist activity at TRPA1 in AITC-induced rat pain model assessed as reduction in pain behaviour when administered orally
Type: functional, organism-based
Threshold check on fEC50: strictly below 50 nM is fulfilled; on or above 50 nM is not fulfilled.

Cn1cnc2ncn(Cc3nc([C@@H]4CO[C@@H](c5ccc(Cl)cc5)C4)no3)c(=O)c21; not fulfilled
Cn1cnc2ncn(Cc3nc([C@H]4[C@@H]5CN(c6cccc(Cl)c6)C[C@@H]54)no3)c(=O)c21; fulfilled
C[C@H]1[C@H](F)C[C@@H](C(=O)NCc2cc(-c3cnc(C(F)(F)F)nc3)ncc2F)N1S(=O)(=O)c1ccc(F)cc1; not fulfilled

Strictly below 50 nM in fEC50? C[C@H]1[C@H](F)C[C@@H](C(=O)NCc2cc(-c3cnc(C(F)(F)F)nc3)ncc2C(F)(F)F)N1S(=O)(=O)c1ccc(F)cc1
fulfilled

Strictly below 50 nM in fEC50? Cn1cnc2ncn(Cc3nn(C[C@H](F)c4ccc(Cl)cc4)c(=O)o3)c(=O)c21
not fulfilled

====

ASSAY PROTOCOL: Ratio of fEC50 for in vivo antagonist activity at TRPA1 in AITC-induced rat pain model assessed as reduction in pain behaviour when administered orally to IC50 for antagonist activity at rat TRPA1
Format: organism-based
MEASUREMENT PARAMETERS: po
Entries and their Ratio
Kindly provide the number alone.

Would you please look over these solved cases?
C[C@H]1[C@H](F)C[C@@H](C(=O)NCc2cc(-c3cnc(C(F)(F)F)nc3)ncc2F)N1S(=O)(=O)c1ccc(F)cc1; 1.7
C[C@H]1[C@H](F)C[C@@H](C(=O)NCc2cc(-c3cnc(C(F)(F)F)nc3)ncc2C(F)(F)F)N1S(=O)(=O)c1ccc(F)cc1; 0.37
Cn1cnc2ncn(Cc3nc([C@H]4[C@@H]5CN(c6cccc(Cl)c6)C[C@@H]54)no3)c(=O)c21; 1

Attention now turns to another entry.
Look at this molecule and give its reported Ratio. Cn1cnc2ncn(Cc3nn(C[C@H](F)c4ccc(Cl)cc4)c(=O)o3)c(=O)c21
22

====

ASSAY PROTOCOL: Half life in rat at 1 mg/kg
Format: ADME, organism-based
MEASUREMENT PARAMETERS: in vivo
Entries and their half-life
The reply should consist of the numeric value with the unit placed after it.

Cn1cnc2ncn(Cc3nn(C[C@H](F)c4ccc(Cl)cc4)c(=O)o3)c(=O)c21; 1.5 h

Look at this compound and give its reported half-life. C[C@H]1[C@H](F)C[C@@H](C(=O)NCc2cc(-c3cnc(C(F)(F)F)nc3)ncc2C(F)(F)F)N1S(=O)(=O)c1ccc(F)cc1
9.8 h

Look at this compound and give its reported half-life. Cn1cnc2ncn(Cc3nn([C@H]4C[C@H](c5ccc(Cl)cc5)C4)c(=O)o3)c(=O)c21
2.7 h

====

ASSAY PROTOCOL: Half life in rat at 0.5 mg/kg
Type: ADME, organism-based
MEASUREMENT PARAMETERS: in vivo
MEASUREMENT TYPE: half-life (h)
Just the number please, in h, no unit attached.

C[C@H]1[C@H](F)C[C@@H](C(=O)NCc2cc(-c3cnc(C(F)(F)F)nc3)ncn2)N1S(=O)(=O)c1ccc(F)cc1; 2

Attention now turns to another entry.
Look at this compound and give its reported half-life. C[C@H]1[C@H](F)C[C@@H](C(=O)NCc2cc(-c3ccc(C(F)(F)F)nc3)ncn2)N1S(=O)(=O)c1ccc(F)cc1
2.6

====

Below are log10 IC50 values recorded for Transient receptor potential cation channel subfamily A member 1 (Rattus norvegicus).
The figures below represent log10 of IC50, where IC50 is stated in nM.

Would you please look over these solved cases?
C[C@H]1[C@H](F)C[C@@H](C(=O)NCc2cc(-c3cnc(C(F)(F)F)nc3)ncn2)N1S(=O)(=O)c1ccc(F)cc1; 2.59
Cn1cnc2ncn(Cc3nn([C@H]4C[C@H](c5ccc(Cl)cc5)C4)c(=O)o3)c(=O)c21; 1.15

Report log10 IC50 for Cn1cnc2ncn(Cc3nc([C@@H]4CO[C@@H](c5ccc(Cl)cc5)C4)no3)c(=O)c21 tested on Transient receptor potential cation channel subfamily A member 1 (Rattus norvegicus).
0.87

Report log10 IC50 for C[C@H]1[C@H](F)C[C@@H](C(=O)NCc2cc(-c3cnc(C(F)(F)F)nc3)ncc2C(F)(F)F)N1S(=O)(=O)c1ccc(F)cc1 tested on Transient receptor potential cation channel subfamily A member 1 (Rattus norvegicus).
1.00

====

Entries and their fVdss
ASSAY PROTOCOL: Unbound volume of distribution at steady state in rat at 1 mg/kg
Format: ADME, organism-based
MEASUREMENT PARAMETERS: in vivo
Just the number please, in L/kg, no unit attached.

Would you please look over these solved cases?
Cn1cnc2ncn(Cc3nn([C@H]4C[C@H](c5ccc(Cl)cc5)C4)c(=O)o3)c(=O)c21; 28
Cn1cnc2ncn(Cc3nc([C@@H]4CO[C@@H](c5ccc(Cl)cc5)C4)no3)c(=O)c21; 11
C[C@H]1[C@H](F)C[C@@H](C(=O)NCc2cc(-c3cnc(C(F)(F)F)nc3)ncc2C(F)(F)F)N1S(=O)(=O)c1ccc(F)cc1; 467

Look at this compound and give its reported fVdss. Cn1cnc2ncn(Cc3nc([C@H]4[C@@H]5CN(c6cccc(Cl)c6)C[C@@H]54)no3)c(=O)c21
110

Look at this compound and give its reported fVdss. C[C@H]1[C@H](F)C[C@@H](C(=O)NCc2cc(-c3cnc(C(F)(F)F)nc3)ncc2F)N1S(=O)(=O)c1ccc(F)cc1
93

Look at this compound and give its reported fVdss. Cn1cnc2ncn(Cc3nn(C[C@H](F)c4ccc(Cl)cc4)c(=O)o3)c(=O)c21
3.4

====

TESTED ON: UniProt O75762
Sequence (O75762 whole entry): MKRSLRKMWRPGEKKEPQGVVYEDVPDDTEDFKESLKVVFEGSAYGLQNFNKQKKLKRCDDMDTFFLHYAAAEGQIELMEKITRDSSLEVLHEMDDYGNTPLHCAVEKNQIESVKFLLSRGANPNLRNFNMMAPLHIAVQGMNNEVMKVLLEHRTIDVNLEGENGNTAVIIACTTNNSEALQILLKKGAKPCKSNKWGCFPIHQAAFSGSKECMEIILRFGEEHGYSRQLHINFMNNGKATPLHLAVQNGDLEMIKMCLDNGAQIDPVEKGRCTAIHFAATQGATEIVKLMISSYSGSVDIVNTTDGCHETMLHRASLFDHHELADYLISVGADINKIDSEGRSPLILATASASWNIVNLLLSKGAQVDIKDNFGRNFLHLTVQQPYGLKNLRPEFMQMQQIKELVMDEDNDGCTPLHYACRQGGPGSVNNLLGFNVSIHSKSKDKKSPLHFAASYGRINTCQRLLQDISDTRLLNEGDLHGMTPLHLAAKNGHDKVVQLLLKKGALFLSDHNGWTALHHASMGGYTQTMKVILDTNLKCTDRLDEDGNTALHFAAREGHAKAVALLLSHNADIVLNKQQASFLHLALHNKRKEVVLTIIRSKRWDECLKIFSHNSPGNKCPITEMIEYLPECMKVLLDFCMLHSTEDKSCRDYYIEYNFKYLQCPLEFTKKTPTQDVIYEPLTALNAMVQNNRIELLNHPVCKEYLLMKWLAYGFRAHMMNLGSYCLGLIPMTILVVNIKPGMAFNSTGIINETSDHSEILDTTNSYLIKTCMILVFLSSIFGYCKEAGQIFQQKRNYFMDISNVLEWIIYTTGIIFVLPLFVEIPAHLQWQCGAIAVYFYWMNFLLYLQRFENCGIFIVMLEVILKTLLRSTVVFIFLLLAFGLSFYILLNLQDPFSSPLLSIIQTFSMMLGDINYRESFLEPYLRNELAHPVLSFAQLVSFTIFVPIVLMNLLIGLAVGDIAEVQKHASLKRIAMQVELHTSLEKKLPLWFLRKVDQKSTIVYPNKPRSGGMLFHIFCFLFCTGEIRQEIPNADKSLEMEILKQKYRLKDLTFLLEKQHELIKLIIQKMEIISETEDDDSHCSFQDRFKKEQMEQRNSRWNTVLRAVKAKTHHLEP
ASSAY PROTOCOL: Antagonist activity at human TRPA1 expressed in CHO cells measured by calcium based FLIPR assay
MEASUREMENT TYPE: IC50 (nM)
Just the number please, in nM, no unit attached.

C[C@H]1[C@H](F)C[C@@H](C(=O)NCc2cc(-c3cnc(C(F)(F)F)nc3)ncc2C(F)(F)F)N1S(=O)(=O)c1ccc(F)cc1; 1.6
Cn1cnc2ncn(Cc3nn(C[C@H](F)c4ccc(Cl)cc4)c(=O)o3)c(=O)c21; 20
Cn1cnc2ncn(Cc3nc([C@H]4[C@@H]5CN(c6cccc(Cl)c6)C[C@@H]54)no3)c(=O)c21; 2.9

Attention now turns to another entry.
Look at this compound and give its reported IC50. C[C@H]1[C@H](F)C[C@@H](C(=O)NCc2cc(-c3cnc(C(F)(F)F)nc3)ncc2F)N1S(=O)(=O)c1ccc(F)cc1
8.4

====

Entries and their log10 CL free
ASSAY PROTOCOL: Unbound clearance in rat at 1 mg/kg
Type: ADME, organism-based
MEASUREMENT PARAMETERS: in vivo
The figures below represent log10 of CL free, where CL free is stated in mL/min/kg.

Would you please look over these solved cases?
Cn1cnc2ncn(Cc3nn([C@H]4C[C@H](c5ccc(Cl)cc5)C4)c(=O)o3)c(=O)c21; 2.09
Cn1cnc2ncn(Cc3nn(C[C@H](F)c4ccc(Cl)cc4)c(=O)o3)c(=O)c21; 1.65
C[C@H]1[C@H](F)C[C@@H](C(=O)NCc2cc(-c3cnc(C(F)(F)F)nc3)ncc2C(F)(F)F)N1S(=O)(=O)c1ccc(F)cc1; 2.81
C[C@H]1[C@H](F)C[C@@H](C(=O)NCc2cc(-c3cnc(C(F)(F)F)nc3)ncc2F)N1S(=O)(=O)c1ccc(F)cc1; 2.20
Cn1cnc2ncn(Cc3nc([C@@H]4CO[C@@H](c5ccc(Cl)cc5)C4)no3)c(=O)c21; 1.95

Look at this compound and give its reported log10 CL free. Cn1cnc2ncn(Cc3nc([C@H]4[C@@H]5CN(c6cccc(Cl)c6)C[C@@H]54)no3)c(=O)c21
2.33

====

TESTED ON: Transient receptor potential cation channel subfamily A member 1 (Rattus norvegicus, UniProt Q6RI86)
Sequence (Q6RI86 whole entry): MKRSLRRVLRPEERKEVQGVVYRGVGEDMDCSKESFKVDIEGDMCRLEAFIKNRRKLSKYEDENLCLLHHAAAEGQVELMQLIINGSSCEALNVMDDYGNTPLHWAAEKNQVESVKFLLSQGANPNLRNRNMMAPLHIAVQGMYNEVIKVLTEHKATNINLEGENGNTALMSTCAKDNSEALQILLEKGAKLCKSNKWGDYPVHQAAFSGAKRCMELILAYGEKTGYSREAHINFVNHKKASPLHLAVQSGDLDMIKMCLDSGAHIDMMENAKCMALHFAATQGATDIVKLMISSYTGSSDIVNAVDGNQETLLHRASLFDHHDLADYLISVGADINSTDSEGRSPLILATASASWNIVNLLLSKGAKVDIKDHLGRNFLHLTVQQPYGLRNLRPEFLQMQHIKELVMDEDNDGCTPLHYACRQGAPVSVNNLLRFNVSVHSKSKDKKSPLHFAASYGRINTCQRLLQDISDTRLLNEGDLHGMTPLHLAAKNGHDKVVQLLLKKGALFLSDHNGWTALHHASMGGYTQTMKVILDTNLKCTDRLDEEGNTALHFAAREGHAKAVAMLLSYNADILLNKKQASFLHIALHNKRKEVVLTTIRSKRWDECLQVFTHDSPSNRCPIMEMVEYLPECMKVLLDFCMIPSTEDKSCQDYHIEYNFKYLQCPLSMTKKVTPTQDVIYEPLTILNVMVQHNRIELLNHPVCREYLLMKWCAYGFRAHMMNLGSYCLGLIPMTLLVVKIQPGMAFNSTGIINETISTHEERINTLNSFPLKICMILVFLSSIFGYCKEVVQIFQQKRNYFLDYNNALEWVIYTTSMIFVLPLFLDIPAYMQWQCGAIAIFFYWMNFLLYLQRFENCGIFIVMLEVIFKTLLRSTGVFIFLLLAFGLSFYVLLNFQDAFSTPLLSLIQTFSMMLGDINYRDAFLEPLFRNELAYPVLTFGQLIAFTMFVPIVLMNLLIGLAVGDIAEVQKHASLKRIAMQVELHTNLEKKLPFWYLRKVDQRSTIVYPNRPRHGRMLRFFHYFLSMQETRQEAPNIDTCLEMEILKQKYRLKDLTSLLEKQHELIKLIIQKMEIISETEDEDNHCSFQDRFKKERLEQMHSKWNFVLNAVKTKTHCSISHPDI
Entries and their pIC50
# reply with the number alone; pIC50 is -log10 of concentration in mol/L

Would you please look over these solved cases?
Cn1cnc2ncn(Cc3nn(C[C@H](F)c4ccc(Cl)cc4)c(=O)o3)c(=O)c21; 7.74
C[C@H]1[C@H](F)C[C@@H](C(=O)NCc2cc(-c3ccc(C(F)(F)F)nc3)ncn2)N1S(=O)(=O)c1ccc(F)cc1; 5.80

Attention now turns to another entry.
Look at this molecule and give its reported pIC50. Cn1cnc2ncn(Cc3nc([C@H]4[C@@H]5CN(c6cccc(Cl)c6)C[C@@H]54)no3)c(=O)c21
8.10
